Tested on: A549
Test: NCI tumour cell line growth inhibition, 48 h
Calls of active or inactive are those of the source. Rule as the data show it: active = GI50 up to about 1.1 µM and inactive = higher.
Overview of reported GI50 across a group of compounds:
Parameter: GI50

{"Compound": "Cc1nc2c(=O)n(C)c(=O)nc-2n(CCO)c1C", "Result": "> 100 µM (inactive)"}
{"Compound": "CC(C)N(C(C)C)S(=O)(=O)C[C@]12CC[C@H](CC13OCC(CS(=O)(=O)c1ccccc1)O3)C2(C)C (stereo partly drawn)", "Result": "36.6 µM (inactive)"}
{"Compound": "Cc1ccc2c(O)cc(-c3cc(C)sc3C)nc2n1", "Result": "3.94 µM (inactive)"}
{"Compound": "Nc1ccc(C(=O)N/C(=C\\c2cccc([N+](=O)[O-])c2)c2nc3c4c(ccc3[nH]2)C(=O)c2ccccc2C4=O)cc1", "Result": "18.6 µM (inactive)"}
{"Compound": "CC(C)(C)CC(C)(C)c1cc2c(O)c(c1)Cc1cc(C(C)(C)CC(C)(C)C)cc(c1O)Cc1cc(C(C)(C)CC(C)(C)C)cc(c1O)Cc1cc(C(C)(C)CC(C)(C)C)cc(c1O)Cc1cc(C(C)(C)CC(C)(C)C)cc(c1O)Cc1cc(C(C)(C)CC(C)(C)C)cc(c1O)Cc1cc(C(C)(C)CC(C)(C)C)cc(c1O)Cc1cc(C(C)(C)CC(C)(C)C)cc(c1O)C2", "Result": "> 100 µM (inactive)"}
{"Compound": "Nc1c(S(=O)(=O)O)cc(Nc2cccc(S(N)(=O)=O)c2)c2c1C(=O)c1ccccc1C2=O", "Result": "> 100 µM (inactive)"}
{"Compound": "O=C1C2C3C=C4c5ccccc5N(c5ccccc5)C4([C@@H]2C(=O)N1c1ccc(F)cc1)[C@H]1C(=O)N(c2ccc(F)cc2)C(=O)[C@@H]31 (stereo partly drawn)", "Result": "> 100 µM (inactive)"}
{"Compound": "CCCCC[C@H](O)[C@H](C)C=C1SCCCS1", "Result": "> 100 µM (inactive)"}
{"Compound": "Cc1ccc(S(=O)(=O)NC(=O)C#CCOC2CCCCO2)cc1 (stereo not drawn)", "Result": "> 100 µM (inactive)"}
{"Compound": "CCCCOP(C)(=O)C(NC(=O)OCC)(C(F)(F)F)C(F)(F)F (stereo not drawn)", "Result": "> 100 µM (inactive)"}
{"Compound": "COc1cc(OCc2nc3cc(C(F)(F)F)ccc3nc2-c2ccccc2)cc(OC)c1OC", "Result": "36.9 µM (inactive)"}
{"Compound": "Nc1[nH]c(=S)[nH]c(=O)c1/N=N/c1c(Br)cc(S(N)(=O)=O)cc1Br", "Result": "> 100 µM (inactive)"}
{"Compound": "c1ccc(-c2sc(-c3cccs3)cc2Cc2cccs2)cc1", "Result": "> 10 µM (inactive)"}
{"Compound": "O=[N+]([O-])/C(C(Cl)=C(Cl)Cl)=C(\\Nc1cccc2cccnc12)Sc1ccccc1", "Result": "29.9 µM (inactive)"}
{"Compound": "CC(CCCCNC(=O)OC(C)(C)C)NC(=O)NC(C)CCCCNC(=O)OC(C)(C)C (stereo not drawn)", "Result": "> 100 µM (inactive)"}
{"Compound": "COc1ccc(C(=O)/C=C/c2ccc(OCC#N)cc2)cc1", "Result": "28.5 µM (inactive)"}
{"Compound": "O=C1c2ccccc2-c2nnc(-c3ccc([N+](=O)[O-])cc3)cc21", "Result": "> 10 µM (inactive)"}
{"Compound": "COc1ccc(CC(C)NCC(O)c2ccc(O)c(NC=O)c2)cc1 (stereo not drawn)", "Result": "> 100 µM (inactive)"}
